assay_remarks: Rotating rod test (sedative/muscle relaxant properties), i.v.
Assay type: in vivo
test_parameters: Mus musculus, iv, 0.25 h, mice, 15 min after administration, read-out: Rotating rod test, ED50, 15 min after administration
assay_metric: ED50 (mg/kg)
Respond numerically; units are mg/kg and should not be typed.

Worked set:
- CC(C)N(Cc1nc(-c2ncn3c2CN(C)C(=O)c2cc(F)ccc2-3)no1)C(C)C: 4.3
- CCCN(CCC)Cc1nc(-c2ncn3c2[C@@H]2CCN2C(=O)c2sccc2-3)no1: 3.5
- CCCN(CCC)Cc1nc(-c2ncn3c2[C@@H]2CCN2C(=O)c2c(Cl)cccc2-3)no1: 2.1
- CCCN(CCC)Cc1nc(-c2ncn3c2CN(C)C(=O)c2cc(F)ccc2-3)no1: 2.6
- O=C1c2c(Cl)cccc2-n2cnc(-c3noc(CN4CCCCC4)n3)c2[C@@H]2CCN12: 3.1
- CCN(CC)Cc1nc(-c2ncn3c2CN(C)C(=O)c2cc(F)ccc2-3)no1: 4.3

Given "C=CCN(CC=C)Cc1nc(-c2ncn3c2[C@@H]2CCN2C(=O)c2c-3ccc(F)c2Cl)no1" , respond with its ED50.
3.9

###

assay_remarks: Rotating rod test (sedative/muscle relaxant properties), i.v.
Type: in vivo
test_parameters: Mus musculus, iv, 5 min, mice, 5 min after administration, read-out: Rotating rod test, ED50, 5 min after administration
Item-by-item account of ED50
Give just the number in mg/kg; leave the unit off.

Here is how some compounds turned out for ED50.
* CC(C)N(Cc1nc(-c2ncn3c2CN(C)C(=O)c2ccccc2-3)no1)C(C)C | 3
* CCCN(CCC)Cc1nc(-c2ncn3c2[C@@H]2CCN2C(=O)c2sccc2-3)no1 | 0.7
* O=C1c2c(Cl)cccc2-n2cnc(-c3noc(CN4CCCCC4)n3)c2[C@@H]2CCN12 | 1.1
* CCN(CC)Cc1nc(-c2ncn3c2CN(C)C(=O)c2cc(F)ccc2-3)no1 | 1.2
* CCN(CC)Cc1nc(-c2ncn3c2CN(C)C(=O)c2c(Cl)cccc2-3)no1 | 2
* CCCCN(CCCC)Cc1nnc(-c2ncn3c2[C@@H]2CCN2C(=O)c2sccc2-3)o1 | 2.4
* CC(C)N(Cc1nc(-c2ncn3c2CN(C)C(=O)c2cc(F)ccc2-3)no1)C(C)C | 1
* CCCN(CCC)Cc1nc(-c2ncn3c2CN(C)C(=O)c2cc(F)ccc2-3)no1 | 0.8
* CCCN(CCC)Cc1nnc(-c2ncn3c2CN(C)C(=O)c2cc(F)ccc2-3)o1 | 3.6

# ---- query compound ----
Give the reported ED50 for this compound. "C=CCN(CC=C)Cc1nc(-c2ncn3c2[C@@H]2CCN2C(=O)c2c-3ccc(F)c2Cl)no1"
0.8

###

assay_remarks: Rotating rod test (sedative/muscle relaxant properties), i.v.
Type: in vivo
test_parameters: Mus musculus, iv, 0.5 min, mice, 30 sec after administration, read-out: Rotating rod test, ED50, 30 sec after administration
So basically, if ED50 comes in under 0.3 mg/kg it's true, and if it's 0.3 mg/kg or more it's false.

- CCCN(CCC)Cc1nc(-c2ncn3c2[C@@H]2CCN2C(=O)c2sccc2-3)no1: true
- CCN(CC)Cc1nc(-c2ncn3c2CN(C)C(=O)c2cc(F)ccc2-3)no1: true
- CN1Cc2c(-c3noc(CN4CCCCC4)n3)ncn2-c2ccc(F)cc2C1=O: false
- CCCN(CCC)Cc1nc(-c2ncn3c2CN(C)C(=O)c2ccccc2-3)no1: false
- O=C1c2c(Cl)cccc2-n2cnc(-c3noc(CN4CCCCC4)n3)c2[C@@H]2CCN12: false
- CC(C)N(Cc1nc(-c2ncn3c2CN(C)C(=O)c2ccccc2-3)no1)C(C)C: false

API: query returns whether the compound falls strictly under 0.3 mg/kg in ED50. Query: "CC(C)N(Cc1nc(-c2ncn3c2CN(C)C(=O)c2cc(F)ccc2-3)no1)C(C)C"
true

Check if ED50 falls below 0.3 mg/kg for "CCCN(CCC)Cc1nc(-c2ncn3c2CN(C)C(=O)c2cc(F)ccc2-3)no1" .
true

Given "CCCN(CCC)Cc1nc(-c2ncn3c2CN(C)C(=O)c2c(F)cccc2-3)no1" , is recorded ED50 strictly lower than 0.3 mg/kg?
true

Record "CCCN(CCC)Cc1nnc(-c2ncn3c2CN(C)C(=O)c2c(Cl)cccc2-3)o1" : is its ED50 strictly below 0.3 mg/kg?
false

From: patent US5665718A
